Just for reference, the supplement of paper PMC7125110 is where these values come from.

B1: glmS ribozyme (parent)
chain: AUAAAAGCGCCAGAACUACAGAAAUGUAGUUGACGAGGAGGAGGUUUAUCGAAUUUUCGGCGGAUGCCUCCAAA

# Variants of: B1
# procedure.details: kcat; higher = faster cleavage; RNA array
# setup.conditions: with glucosamine-6-phosphate
Fewer inactive variants are shown than the library holds.
kcat values by entry
Answer format: numeric, s⁻¹ implied, no suffix.

Example results:
AUAAAAGCGCCAGAACUACAGAAAUGUAGUUGCCGAGGAAGAGGUUUAUCGAAUUUUCGGCGGAUGCCUCCAAA [A33C G40A] ... 2.31e-05
AUAAAAGCGCCAGAACUACAGAAAUGUAGUUGACGAGGAGGAGGUUUAUCGAAUUUUCGGCGGAUUCGUCCAAA [G66U C68G] ... 4.91e-05
AUAAAAGCGCCAGAACUACAGAAAUGUAGUUGACGAAGAGAAGGUUUAUCGAAUUUUCGGCGGAUGCCUCCAAA [G37A G41A] ... 0.000353

Item AUAAAAGCGCCAGCAGUACAGAAAUGUAGUUGACGAGGAGGAGGUUUAUCGAAUUUUCGGCGGAUGCCUCCAAA [A14C C16G] has what recorded kcat?
8.6e-05

Item AUAAAAGCGCCAGAACUACAGAAAUGUAGUAGACGACGAGGAGGUUUAUCGAAUUUUCGGCGGAUGCCUCCAAA [U31A G37C] has what recorded kcat?
3.35e-05

Item AUAAAAGCGCCAGAACUACAGAAAUGUAGUUGACGAGGAGGAGGUUGAUCGAAGUUUCGGCGGAUGCCUCCAAA [U47G U54G] has what recorded kcat?
0.0073

Item AUAAAUGCGCCAGAACUACAGAAAUGUAGUUGACGAGGAGUAGGUUUAUCGAAUUUUCGGCGGAUGCCUCCAAA [A6U G41U] has what recorded kcat?
4.92e-05
